tested on: U87; experiment: cell viability relative to vehicle control; higher = less growth inhibition (less active); conditions: 10 µM; 72 h
The entries below come with measured cell viability values attached.
Measured attribute: cell viability (%)

O=C(O)Cc1ccccc1Nc1c(Cl)cccc1Cl ... 106
Nc1nc(Cl)nc2c1ncn2[C@H]1C[C@H](O)[C@@H](CO)O1 ... 35.4
OC[C@H]1O[C@@H](Oc2cc(O)cc(/C=C/c3ccc(O)cc3)c2)[C@H](O)[C@@H](O)[C@@H]1O ... 99.7
CC(C)(C#N)c1cc(Cn2cncn2)cc(C(C)(C)C#N)c1 ... 109
CCC(=O)NS(=O)(=O)c1ccc(-c2c(-c3ccccc3)noc2C)cc1 ... 109

----------
tested on: U87; experiment: cell viability relative to vehicle control; higher = less growth inhibition (less active); settings: 10 µM; 72 h
Measured attribute: cell viability (%)

CC[C@]1(O)C[C@@H]2CN(CCc3c([nH]c4ccccc34)[C@@](C(=O)OC)(c3cc4c(cc3OC)N(C)[C@H]3[C@@](O)(C(N)=O)[C@H](O)[C@]5(CC)C=CCN6CC[C@]43[C@@H]65)C2)C1 ... 24.7
CN(C)CC/C=C1/c2ccccc2COc2ccc(CC(=O)O)cc21 ... 95.9
C[C@@H](c1ncncc1F)[C@](O)(Cn1cncn1)c1ccc(F)cc1F ... 106
C#C[C@]1(O)CC[C@H]2[C@@H]3CCc4cc(OC)ccc4[C@H]3CC[C@@]21C ... 103
CS(=O)(=O)c1ccc(C2=C(c3ccccc3)C(=O)OC2)cc1 ... 108

----------
The entries below come with measured cell viability values attached.
test system: U87; test: cell viability relative to vehicle control; higher = less growth inhibition (less active); conditions: 10 µM; 72 h
Measured attribute: cell viability (%)

Nc1nc2ccc(Cl)cc2c2nc(-c3ccco3)nn12 ... 93.4
CN(C)CCC=C1c2ccccc2COc2ccccc21 [Doxepin] ... 102
Cc1onc(-c2ccccc2)c1-c1ccc(S(N)(=O)=O)cc1 ... 107
O=c1c(-c2ccccc2)c1-c1ccccc1 ... 77.4
C[C@]12C[C@H](O)[C@H]3[C@@H](CCC4=CC(=O)CC[C@@]43C)[C@@H]1CC[C@@H]2C(=O)CO ... 105
Nc1ccn([C@@H]2O[C@H](CO)[C@@H](O)[C@@H]2O)c(=O)n1 [2(1H)-Pyrimidinone, 4-amino-1-D-arabinofuranosyl- [CAS]] ... 47.5
Clc1ccccc1C(c1ccccc1)(c1ccccc1)n1ccnc1 ... 108
COc1cc(CNC(=O)CCCC/C=C/C(C)C)ccc1O ... 109
CNCC[C@@H](Oc1ccccc1C)c1ccccc1 ... 108
OCCN1CCN(CCCN2c3ccccc3Sc3ccc(C(F)(F)F)cc32)CC1 ... 104

----------
tested on: U87; assay: cell viability relative to vehicle control; higher = less growth inhibition (less active); details: 10 µM; 72 h
Measured attribute: cell viability (%)

COc1cc(C)c(Cc2cnc(N)nc2N)cc1OC ... 100
CCCCCCCCCCC[C@@H](C[C@@H]1OC(=O)[C@H]1CCCCCC)OC(=O)[C@H](CC(C)C)NC=O ... 103
CC[C@H]1OC(=O)[C@H](C)[C@@H](O[C@H]2C[C@@](C)(OC)[C@@H](O)[C@H](C)O2)[C@H](C)[C@@H](O[C@@H]2O[C@H](C)C[C@H](N(C)C)[C@H]2O)[C@](C)(OC)C[C@@H](C)C(=O)[C@H](C)[C@@H](O)[C@]1(C)O ... 107
O=C(CCNNC(=O)c1ccncc1)NCc1ccccc1 ... 108
C[C@]12CC[C@@H]3c4ccc(OS(=O)(=O)O)cc4CC[C@H]3[C@@H]1CCC2=O ... 111

----------
tested on: U87; assay: cell viability relative to vehicle control; higher = less growth inhibition (less active); conditions: 10 µM; 72 h
The entries below come with measured cell viability values attached.
Measured attribute: cell viability (%)

CCCCC[C@H](O)/C=C/[C@H]1[C@H](O)CC(=O)[C@@H]1CCCCCCC(=O)O [Prostaglandin E1] ... 106
COCc1c(C(C)C)nc(C(C)C)c(/C=C/[C@@H](O)C[C@@H](O)CC(=O)O)c1-c1ccc(F)cc1 ... 14.2
COc1ccc(-c2oc3c(CC=C(C)C)c(O[C@@H]4O[C@H](CO)[C@@H](O)[C@H](O)[C@H]4O)cc(O)c3c(=O)c2O[C@@H]2O[C@@H](C)[C@H](O)[C@@H](O)[C@H]2O)cc1 ... 105
NC(N)=NC(=O)c1nc(Cl)c(N)nc1N ... 93.5
CCS(=O)(=O)CCn1c([N+](=O)[O-])cnc1C ... 101
COc1cc(N)c(Cl)cc1C(=O)NC1CCN(CCCOc2ccc(F)cc2)CC1OC (centres undefined) [Cisapride] ... 103
NC(N)=Nc1nc(CSCC/C(N)=N/S(N)(=O)=O)cs1 ... 98.4
C=CCc1ccc(O)c(-c2ccc(O)c(CC=C)c2)c1 ... 101
OCc1cccnc1 ... 108
CCOC(=O)N1CCC(=C2c3ccc(Cl)cc3CCc3cccnc32)CC1 ... 102
CN(CCCN1c2ccccc2CCc2ccccc21)CC(=O)c1ccc(Cl)cc1 ... 107
C#C[C@]1(O)CC[C@H]2[C@@H]3[C@H](C)CC4=C(CCC(=O)C4)[C@H]3CC[C@@]21C ... 106
COc1ccccc1N1CCN(CC(O)COc2cccc3ccccc23)CC1 (centres undefined) ... 99.6
CC(Cc1ccccc1)(NC(=O)CN)c1ccccc1 (racemic) ... 93.1
CCC1=C[C@H]2CN(C1)Cc1c([nH]c3ccccc13)[C@@](C(=O)OC)(c1cc3c(cc1OC)N(C)[C@H]1[C@@](O)(C(=O)OC)[C@H](OC(C)=O)[C@]4(CC)C=CCN5CC[C@]31[C@@H]54)C2 [Vinorelbine Bitatrate] ... 18
Cc1ccsc1C(=CCCN1CCC[C@@H](C(=O)O)C1)c1sccc1C ... 104
O=C1Nc2ccccc2/C1=C1/Nc2ccccc2C1=O ... 99.6
Cc1cccc(Nc2ccncc2S(=O)(=O)NC(=O)NC(C)C)c1 ... 124
CCc1ccc(CCOc2ccc(CC3SC(=O)NC3=O)cc2)nc1 (centres undefined) ... 105

----------
The entries below come with measured cell viability values attached.
tested on: U87; experiment: cell viability relative to vehicle control; higher = less growth inhibition (less active); conditions: 10 µM; 72 h;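 also: viable cell number estimated from Alamar Blue fluorescence read at 560/90, part of a single-dose primary screen of an FDA-approved drug library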
Measured attribute: cell viability (%)

Cc1nccn1CC1CCc2c(c3ccccc3n2C)C1=O (stereo not drawn) [Ondansetron] ... 99.8
CCCN1CCCC[C@H]1C(=O)Nc1c(C)cccc1C ... 107
CC(C)(C)NC(=O)[C@H]1CC[C@H]2[C@@H]3CC[C@H]4NC(=O)C=C[C@]4(C)[C@H]3CC[C@]12C ... 105
CC(C)[C@H](N)C(=O)OCCOCn1cnc2c(=O)nc(N)[nH]c21 ... 103
O=C1CCc2ccc(OCCCCN3CCN(c4cccc(Cl)c4Cl)CC3)cc2N1 ... 102
CC(=O)OCC(CCn1cnc2cnc(N)nc21)COC(C)=O ... 104
O=C1c2cccc3c2[C@H](CCC3)CN1[C@@H]1CN2CCC1CC2 ... 84.3
CN=C(N)NCCC[C@H](N)C(=O)O [L-Ornithine, N5-[imino(methylamino)methyl]-[CAS]] ... 105
CC(C)(C)NC(=O)[C@@H]1C[C@@H]2CCCC[C@@H]2CN1C[C@@H](O)[C@H](Cc1ccccc1)NC(=O)[C@H](CC(N)=O)NC(=O)c1ccc2ccccc2n1 ... 96.4
CN(C)CCCC1(c2ccc(F)cc2)OCc2cc(C#N)ccc21 (stereo not drawn) [Citalopram] ... 102
N#Cc1ccc(C(c2ccc(C#N)cc2)n2cncn2)cc1 ... 103
CCOC(=O)c1ncn2c1CN(C)C(=O)c1cc(F)ccc1-2 ... 103
CC(=O)N1CCN(c2ccc(OCC3COC(Cn4ccnc4)(c4ccc(Cl)cc4Cl)O3)cc2)CC1 (stereo not drawn) [Ketoconazole] ... 94.3
CC(=O)O[C@H]1C[C@@H]2CC[C@@H]3[C@H](CC[C@@]4(C)[C@H]3C[C@H]([N+]3(C)CCCCC3)[C@@H]4OC(C)=O)[C@@]2(C)C[C@@H]1N1CCCCC1 ... 103
Cc1ncc([N+](=O)[O-])n1CCO ... 104
COc1cc(/C=C/c2ccc(O)cc2)cc(OC)c1 ... 100
CC(C)C[C@H](NC(=O)[C@@H](O)[C@H](N)Cc1ccccc1)C(=O)O ... 97.1
O=c1[nH]c(=O)n(C2CCCO2)cc1F (stereo not drawn) ... 96.7
CN(CCO)CC(O)Cn1cnc2c1c(=O)n(C)c(=O)n2C (stereo not drawn) ... 104
Oc1ccc(C2CNCCc3c2cc(O)c(O)c3Cl)cc1 (stereo not drawn) ... 103
CN1CC(=O)N2[C@H](c3ccc4c(c3)OCO4)c3[nH]c4ccccc4c3C[C@@H]2C1=O ... 107
CC(=O)Oc1ccccc1C(=O)Nc1ncc([N+](=O)[O-])s1 ... 103
COC(=O)C[C@](O)(CCCC(C)(C)O)C(=O)O[C@@H]1C(OC)=C[C@]23CCCN2CCc2cc4c(cc2[C@H]13)OCO4 ... 10.3
C=CC[C@@H]1/C=C(\C)C[C@H](C)C[C@H](OC)[C@H]2O[C@@](O)(C(=O)C(=O)N3CCCC[C@H]3C(=O)O[C@H](/C(C)=C/[C@@H]3CC[C@@H](O)[C@H](OC)C3)[C@H](C)[C@@H](O)CC1=O)[C@H](C)C[C@@H]2OC ... 102
Cc1ncc([N+](=O)[O-])n1CC(O)CCl (stereo not drawn) ... 91.1
O=c1[nH]cnc2c1ncn2[C@H]1CC[C@@H](CO)O1 ... 105
Nc1c2c(nc3c1CCC3)CCCC2 ... 97.1
C[C@H]1O[C@H](O[C@H]2[C@H](O)[C@@H](O)[C@@H](O[C@H]3[C@H](O)[C@@H](O)C(O)O[C@@H]3CO)O[C@@H]2CO)[C@H](O)[C@@H](O)[C@@H]1N[C@H]1C=C(CO)[C@@H](O)[C@H](O)[C@H]1O (stereo partly drawn) ... 103
O=C1N[C@H](C(=O)O)CS1 [4-Thiazolidinecarboxylic acid, 2-oxo-, (R)- [CAS]] ... 101
CN1[C@@H]2CC[C@H]1C[C@@H](OC(=O)c1c[nH]c3ccccc13)C2 ... 105
Cc1nc(=O)c2cc(CN(C)c3ccc(C(=O)N[C@@H](CCC(=O)O)C(=O)O)s3)ccc2[nH]1 ... 85.4
CC(Oc1c(Cl)cccc1Cl)C1=NCCN1 (stereo not drawn) ... 113
CNS(=O)(=O)Cc1ccc2[nH]cc(CCN(C)C)c2c1 ... 101
CN1CCN(CCCN2c3ccccc3Sc3ccc(Cl)cc32)CC1 ... 95.9
C[C@H]1COc2c(C3(N)CC3)c(F)cc3c(=O)c(C(=O)O)cn1c23 ... 102
NC[C@H]1CC[C@H](C(=O)Oc2ccc(CCC(=O)O)cc2)CC1 ... 105
CCN(CC)C(=O)C1(c2ccccc2)CC1CN (stereo not drawn) [Milnacipran] ... 102
Cc1cccc(C)c1NC(=O)C(C)N (stereo not drawn) ... 104
